Test system: MOLT-4 leukemia
Test: NCI tumour cell line growth inhibition, 48 h
measurement_label: TGI

In: Test system MOLT-4 leukemia; read-out TGI; what value for N#Cc1c(N)nc2n[nH]c(N)c2c1-c1ccc(Cl)cc1 ?
Out: > 100 µM

In: Test system MOLT-4 leukemia; read-out TGI; what value for CN(C)CCCC12CCCCC1=Nc1ccccc12 (centres undefined) ?
Out: > 100 µM

In: Test system MOLT-4 leukemia; read-out TGI; what value for Cc1ccc(NC(=O)CC2CC2)cc1-c1ccc(C(=O)NCC2CC2)cc1 ?
Out: > 25 µM

In: Test system MOLT-4 leukemia; read-out TGI; what value for O=C(Nc1nc(C23CC4CC(CC(C4)C2)C3)cs1)c1cc2ccc(O)cc2oc1=O ?
Out: 38.1 µM

In: Test system MOLT-4 leukemia; read-out TGI; what value for CC(CO)(CO)N1C(=O)C2C3C=CC(C3)C2C1=O (centres undefined) ?
Out: > 100 µM

In: Test system MOLT-4 leukemia; read-out TGI; what value for Nc1nc(SC/C=C/c2ccccc2)c2[nH]cnc2n1 ?
Out: > 100 µM

In: Test system MOLT-4 leukemia; read-out TGI; what value for Cn1cc(NC(=O)Nc2cc(C(=O)Nc3cc(C(=O)Nc4ccc(S(=O)(=O)O)c5cc(S(=O)(=O)O)ccc45)n(C)c3)n(C)c2)cc1C(=O)Nc1cc(C(=O)Nc2ccc(S(=O)(=O)O)c3cc(S(=O)(=O)O)ccc23)n(C)c1 ?
Out: > 100 µM

In: Test system MOLT-4 leukemia; read-out TGI; what value for CCC(C)COC(=O)c1ccc(N=Cc2ccc(C=Nc3ccc(C(=O)OCC(C)CC)cc3)cc2)cc1 (centres undefined) ?
Out: > 100 µM

In: Test system MOLT-4 leukemia; read-out TGI; what value for COc1ccc(CC2NCCc3c2[nH]c2ccccc32)cc1 (centres undefined) ?
Out: > 100 µM
